Target: T1, human OX40_Fc (R&D Systems) (human, UniProt P43489 29-216)
T1 construct: Bought
T1 sequence (P43489 29-216): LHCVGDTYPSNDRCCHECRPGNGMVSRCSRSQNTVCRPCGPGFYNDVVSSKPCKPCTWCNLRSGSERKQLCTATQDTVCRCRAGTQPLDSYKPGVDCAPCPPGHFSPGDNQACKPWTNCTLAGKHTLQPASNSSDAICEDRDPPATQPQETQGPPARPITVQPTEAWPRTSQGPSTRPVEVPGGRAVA
Assay: BLI, hOX40-Fc on tip, Fab 200 nM, monovalent
measured-endpoint: Kd (nM)
Entry rule: numbers only, all in nM.

Exercise: Query (binder): ADI-20051, Fab (Fab, V domains shown) VH: QVQLQQWGAGLLKPSETLSLTCAVYGGSFSGYYWSWIRQPPGKGLEWIGEIDHSGSTNYNPSLKSRVTISVDTSKNQFSLKLSSVTAADTAVYYCARDGGGGYASPFDYWGQGTLVTVSS VL: EIVMTQSPATLSVSPGERATLSCRASQSVSSNLAWYQQKPGQAPRLLIYGASTRATGIPARFSGSGSGTEFTLTISSLQSEDFAVYYCQQYHAWPPTFGGGTKVEIKR ; field requested: Kd
Key: 25.8
